The values you see were collected from paper PMC10397247.

Target: T1, 4H3381-AA
T1 chain: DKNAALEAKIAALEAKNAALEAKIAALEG
Test: two-hybrid library CCmax;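 also: natural log of median RNA to DNA barcode read ratio; higher means stronger binding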
Details: mean of both orientations
Catalogue of interaction score readings, one per entry.
Would you mind answering with just the numeric figure?

Example entries and their recorded answers appear below.
- DKNAALEAEIAALKAENAALKAKIAALEG [4H3165-AA]: -1.72
- DENAALKAKIAALEAKNAALEAEIAALKG [4H1842-AA]: -1.2
- DKIAALEAENAALEAKIAALKAENAALEG [4H2219-AA]: -1.13
- DKNAALEAEIAALEAKIAALKAKNAALKG [4H3120-AA]: -1.79
- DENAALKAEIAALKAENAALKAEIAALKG [4H1626-AA]: -1.5

get_value(item= DKIAALEAKNAALKAEIAALEAKNAALKG [4H2504-AA] , readout=interaction score) returns -0.947

Kindly note the recorded interaction score for DKNAALEAKIAALEAEIAALKAENAALKG [4H3340-AA] , which is -1.57

Reported interaction score ( DKIAALKAKNAALEAKNAALKAEIAALEG [4H3001-AA] ) = -1.43
